- System: Escherichia coli JR66/W677
- assay protocol: Antibacterial MIC, standard serial dilution
- Assay type: cell-based
- condition set: nutrient agar, 37° C., 17 hours, as free base
measurement label: MIC (µg/mL)
Your answer is read as µg/mL, so omit the unit and give the number.

Field MIC (entry CNCC1CCC(N)C(OC2C(N)CC(O)C(N(C)C(=O)CNC=N)C2O)O1 (centres unmarked) [Demethyl formimidoyl ista B, 3-O-demethyl-2"-N-formimidoylistamycin B] ) reads 1.56

Field MIC (entry CNCC1CCC(N)C(OC2C(N)CC(O)C(N(C)C(=O)CN)C2O)O1 (centres unmarked) [Demethyl ista B, 3-O-demethylistamycin B] ) reads 1.56

Field MIC (entry CNC[C@@H]1CC[C@@H](N)[C@@H](O[C@H]2[C@H](O)[C@H](N(C)C(=O)CN)[C@@H](OC)C[C@H]2N)O1 [B, istamycin B] ) reads 1.56

Field MIC (entry CNCC1CCC(N)C(OC2C(N)CCC(N(C)C(=O)CNC=N)C2O)O1.O.O.O.O.O=S(=O)(O)O.O=S(=O)(O)O (centres unmarked) [DBF, 3-demethoxy-2"-N-formimidoylistamycin B] ) reads 0.39

Field MIC (entry CNCC1CCC(N)C(OC2C(N)CCC(N(C)C(=O)CN)C2O)O1 (centres unmarked) [DB, 3-demethoxyistamycin B] ) reads 0.78

---

- System: Serratia marcescens
- assay protocol: Antibacterial MIC, standard serial dilution
- Type: cell-based
- condition set: nutrient agar, 37° C., 17 hours, as free base
measurement label: MIC
Don't forget the unit after the value.

Field MIC (entry CNC[C@@H]1CC[C@@H](N)[C@@H](O[C@H]2[C@H](O)[C@H](N(C)C(=O)CN)[C@@H](OC)C[C@H]2N)O1 ) reads 1.56 µg/mL

Field MIC (entry CNCC1CCC(N)C(OC2C(N)CCC(N(C)C(=O)CN)C2O)O1 (centres unmarked) ) reads 0.78 µg/mL

Field MIC (entry CNCC1CCC(N)C(OC2C(N)CC(O)C(N(C)C(=O)CN)C2O)O1 (centres unmarked) ) reads 1.56 µg/mL

Field MIC (entry CNCC1CCC(N)C(OC2C(N)CCC(N(C)C(=O)CNC=N)C2O)O1.O.O.O.O.O=S(=O)(O)O.O=S(=O)(O)O (centres unmarked) ) reads 0.78 µg/mL

Field MIC (entry CNCC1CCC(N)C(OC2C(N)CC(O)C(N(C)C(=O)CNC=N)C2O)O1 (centres unmarked) ) reads 1.56 µg/mL

---

For each record, write down the corresponding MIC.
- Tested on: Providencia sp. 2991
- assay protocol: Antibacterial MIC, standard serial dilution
- Type: cell-based
- condition set: nutrient agar, 37° C., 17 hours, as free base
Your answer is read as µg/mL, so omit the unit and give the number.

Field MIC (entry CNCC1CCC(N)C(OC2C(N)CC(O)C(N(C)C(=O)CNC=N)C2O)O1 (centres unmarked) [Demethyl formimidoyl ista B, 3-O-demethyl-2"-N-formimidoylistamycin B] ) reads 0.78

Field MIC (entry CNC[C@@H]1CC[C@@H](N)[C@@H](O[C@H]2[C@H](O)[C@H](N(C)C(=O)CN)[C@@H](OC)C[C@H]2N)O1 [B, istamycin B] ) reads 3.13

Field MIC (entry CNCC1CCC(N)C(OC2C(N)CCC(N(C)C(=O)CNC=N)C2O)O1.O.O.O.O.O=S(=O)(O)O.O=S(=O)(O)O (centres unmarked) [DBF, 3-demethoxy-2"-N-formimidoylistamycin B] ) reads 1.56

Field MIC (entry CNCC1CCC(N)C(OC2C(N)CCC(N(C)C(=O)CN)C2O)O1 (centres unmarked) [DB, 3-demethoxyistamycin B] ) reads 1.56

Field MIC (entry CNCC1CCC(N)C(OC2C(N)CC(O)C(N(C)C(=O)CN)C2O)O1 (centres unmarked) [Demethyl ista B, 3-O-demethylistamycin B] ) reads 1.56

---

- Test system: Escherichia coli K-12 LA290 R56
- assay protocol: Antibacterial MIC, standard serial dilution
- Type: cell-based
- condition set: nutrient agar, 37° C., 17 hours, as free base
measurement label: MIC
Don't forget the unit after the value.

Field MIC (entry CNCC1CCC(N)C(OC2C(N)CC(O)C(N(C)C(=O)CNC=N)C2O)O1 (stereo not shown) [Demethyl formimidoyl ista B, 3-O-demethyl-2"-N-formimidoylistamycin B] ) reads 0.78 µg/mL

Field MIC (entry CNCC1CCC(N)C(OC2C(N)CC(O)C(N(C)C(=O)CN)C2O)O1 (stereo not shown) [Demethyl ista B, 3-O-demethylistamycin B] ) reads 0.78 µg/mL

Field MIC (entry CNCC1CCC(N)C(OC2C(N)CCC(N(C)C(=O)CN)C2O)O1 (stereo not shown) [DB, 3-demethoxyistamycin B] ) reads 0.39 µg/mL

Field MIC (entry CNCC1CCC(N)C(OC2C(N)CCC(N(C)C(=O)CNC=N)C2O)O1.O.O.O.O.O=S(=O)(O)O.O=S(=O)(O)O (stereo not shown) [DBF, 3-demethoxy-2"-N-formimidoylistamycin B] ) reads 0.39 µg/mL

---

- Test system: Pseudomonas aeruginosa 99
- assay protocol: Antibacterial MIC, standard serial dilution
- Format: cell-based
- condition set: nutrient agar, 37° C., 17 hours, as free base
measurement label: MIC

Field MIC (entry CNCC1CCC(N)C(OC2C(N)CC(O)C(N(C)C(=O)CNC=N)C2O)O1 (centres unmarked) [Demethyl formimidoyl ista B, 3-O-demethyl-2"-N-formimidoylistamycin B] ) reads 100 µg/mL

Field MIC (entry CNCC1CCC(N)C(OC2C(N)CC(O)C(N(C)C(=O)CN)C2O)O1 (centres unmarked) [Demethyl ista B, 3-O-demethylistamycin B] ) reads 25 µg/mL

Field MIC (entry CNCC1CCC(N)C(OC2C(N)CCC(N(C)C(=O)CN)C2O)O1 (centres unmarked) [DB, 3-demethoxyistamycin B] ) reads 25 µg/mL

Field MIC (entry CNC[C@@H]1CC[C@@H](N)[C@@H](O[C@H]2[C@H](O)[C@H](N(C)C(=O)CN)[C@@H](OC)C[C@H]2N)O1 [B, istamycin B] ) reads 100 µg/mL

Field MIC (entry CNCC1CCC(N)C(OC2C(N)CCC(N(C)C(=O)CNC=N)C2O)O1.O.O.O.O.O=S(=O)(O)O.O=S(=O)(O)O (centres unmarked) [DBF, 3-demethoxy-2"-N-formimidoylistamycin B] ) reads > 100 µg/mL

---

- Test system: Klebsiella pneumoniae PCI602
- assay protocol: Antibacterial MIC, standard serial dilution
- Type: cell-based
- condition set: nutrient agar, 37° C., 17 hours, as free base
measurement label: MIC (µg/mL)
Your answer is read as µg/mL, so omit the unit and give the number.

Tested on Klebsiella pneumoniae PCI602: CNCC1CCC(N)C(OC2C(N)CC(O)C(N(C)C(=O)CN)C2O)O1 (centres unmarked) . Observed MIC: 1.56

Tested on Klebsiella pneumoniae PCI602: CNCC1CCC(N)C(OC2C(N)CCC(N(C)C(=O)CNC=N)C2O)O1.O.O.O.O.O=S(=O)(O)O.O=S(=O)(O)O (centres unmarked) . Observed MIC: 0.78

Tested on Klebsiella pneumoniae PCI602: CNCC1CCC(N)C(OC2C(N)CCC(N(C)C(=O)CN)C2O)O1 (centres unmarked) . Observed MIC: 0.78

Tested on Klebsiella pneumoniae PCI602: CNC[C@@H]1CC[C@@H](N)[C@@H](O[C@H]2[C@H](O)[C@H](N(C)C(=O)CN)[C@@H](OC)C[C@H]2N)O1 . Observed MIC: 3.13

Tested on Klebsiella pneumoniae PCI602: CNCC1CCC(N)C(OC2C(N)CC(O)C(N(C)C(=O)CNC=N)C2O)O1 (centres unmarked) . Observed MIC: 0.78

---

- System: Pseudomonas maltophilia GN 907
- assay protocol: Antibacterial MIC, standard serial dilution
- Type: cell-based
- condition set: nutrient agar, 37° C., 17 hours, as free base
For each record, write down the corresponding MIC.
Your answer is read as µg/mL, so omit the unit and give the number.

Field MIC (entry CNCC1CCC(N)C(OC2C(N)CC(O)C(N(C)C(=O)CN)C2O)O1 (centres unmarked) ) reads 100

Field MIC (entry CNCC1CCC(N)C(OC2C(N)CCC(N(C)C(=O)CN)C2O)O1 (centres unmarked) ) reads 100

Field MIC (entry CNC[C@@H]1CC[C@@H](N)[C@@H](O[C@H]2[C@H](O)[C@H](N(C)C(=O)CN)[C@@H](OC)C[C@H]2N)O1 ) reads 100

---

- Tested on: Pseudomonas aeruginosa A3
- assay protocol: Antibacterial MIC, standard serial dilution
- Type: cell-based
- condition set: nutrient agar, 37° C., 17 hours, as free base
measurement label: MIC
Don't forget the unit after the value.

Field MIC (entry CNC[C@@H]1CC[C@@H](N)[C@@H](O[C@H]2[C@H](O)[C@H](N(C)C(=O)CN)[C@@H](OC)C[C@H]2N)O1 ) reads 1.56 µg/mL

Field MIC (entry CNCC1CCC(N)C(OC2C(N)CC(O)C(N(C)C(=O)CNC=N)C2O)O1 (centres unmarked) ) reads 0.20 µg/mL

Field MIC (entry CNCC1CCC(N)C(OC2C(N)CCC(N(C)C(=O)CNC=N)C2O)O1.O.O.O.O.O=S(=O)(O)O.O=S(=O)(O)O (centres unmarked) ) reads 0.39 µg/mL

Field MIC (entry CNCC1CCC(N)C(OC2C(N)CC(O)C(N(C)C(=O)CN)C2O)O1 (centres unmarked) ) reads 0.20 µg/mL

Field MIC (entry CNCC1CCC(N)C(OC2C(N)CCC(N(C)C(=O)CN)C2O)O1 (centres unmarked) ) reads 0.39 µg/mL
